hNav1.7: Shift in voltage dependence of inactivation (mV) Delta Vhalf: recorded values
Target: human Nav1.7 (Homo sapiens)
Construct: expressed in transfected cells
Assay: Assessment of Nav1.7 activity on PatchXpress (voltage dependence / slow inactivation parameters)
Format: cell-based
Conditions: compound at 10 μM; relative to 0.2% DMSO vehicle control; PatchXpress
Assay Metric: hNav1.7: Shift in voltage dependence of inactivation (mV) Delta Vhalf

• CC(C)(CC(=O)N1CCNCC1)c1nc2cc(C(F)(F)F)cc(C(F)(F)F)c2[nH]1 = −12.5 mV
• CC12CC3CC(C)(C1)CC(NC(=O)CCN)(C3)C2 = −1.70 mV
• Cc1cccc(C)c1OCC(C)NC(=O)C(C)(C)N1CCNCC1=O (stereo not drawn) = −5.00 mV

* * *

Biological target: human Nav1.7 (Homo sapiens, UniProt Q15858)
Construct: expressed in transfected cells
Assay: Assessment of Nav1.7 activity on PatchXpress (voltage dependence / slow inactivation parameters)
Assay type: cell-based
Details: compound at 10 μM; relative to 0.2% DMSO vehicle control
Assign yes whenever hNav1.7: Voltage dependence of fast inactivation (mV) VDEP does not fall below -6 mV; assign no whenever it does.

- CN[C@H](CC(C)C)C(=O)NCCOc1cc(C(F)(F)F)cc(C(F)(F)F)c1: yes
- O[C@@H]1CN[C@H](c2nc3cc(C(F)(F)F)cc(C(F)(F)F)c3[nH]2)C1: yes
- O=C1CNCCN1CCCc1nc2cc(F)cc(F)c2[nH]1: yes
- CC(C)(CN1CCNCC1=O)c1nc2cc(F)cc(F)c2[nH]1: yes
- CN(Cc1nc2c(C(F)(F)F)cc(C(F)(F)F)cc2[nH]1)C(=O)CNC(C)(C)C: yes
- N[C@H](Cc1cccc(C(F)(F)F)c1)C(=O)NCc1nc2ccc(Br)cc2[nH]1: no
- CC(C)(C)OC(=O)N[C@H](Cc1cccc(C(F)(F)F)c1)C(=O)NCc1nc2ccc(Br)cc2[nH]1: no
- CC12CC3CC(C)(C1)CC(NC(=O)[C@H]1CCCN1)(C3)C2: yes

* * *

// hNav1.7: Reduction in current at 20 mV (normalized data) Delta Ratio lookup, one value per entry
Biological target: human Nav1.7 (Homo sapiens)
Construct: expressed in transfected cells
Experiment: Assessment of Nav1.7 activity on PatchXpress (voltage dependence / slow inactivation parameters)
Format: cell-based
Details: compound at 10 μM; before/after 30 sec conditioning pulse at 20 mV; relative to 0.2% DMSO vehicle control
Assay Metric: hNav1.7: Reduction in current at 20 mV (normalized data) Delta Ratio

• CC(C)(CN1CCNCC1=O)c1nc2cc(C(F)(F)F)cc(C(F)(F)F)c2[nH]1 = −0.16
• O=C1CNCCN1Cc1nc2cc(Br)ccc2[nH]1 = −0.17
• CC(C)(c1nc2cc(F)cc(F)c2[nH]1)N1CCNCC1=O = −0.16
• CC(C)CC(N)C(=O)N[C@@H](C)COc1cc(C(F)(F)F)cc(C(F)(F)F)c1 (stereo partly drawn) = −0.20
• CN[C@H](CC(C)C)C(=O)NCCOc1cc(C(F)(F)F)cc(C(F)(F)F)c1 = −0.17
• C[C@@H](NC(=O)[C@@H]1CCCN1)c1ccc(OCC(F)(F)F)cn1 = −0.02
• O=C1CNCCN1Cc1cc(C(F)(F)F)cc(C(F)(F)F)c1 = 0.01
• CC(C)C[C@@H](N)C(=O)NC(C)COc1cc(C(F)(F)F)cc(C(F)(F)F)c1 (stereo partly drawn) = −0.25
• Cc1cccc(C)c1OCC(C)NC(=O)C(C)(C)CC(=O)N1CCNCC1 (stereo not drawn) = −0.07
• CC(C)(c1nc2cc(C(F)(F)F)cc(C(F)(F)F)c2[nH]1)N1CCNCC1=O = −0.19
• CC(C)(C)OC(=O)N[C@H](Cc1cccc(C(F)(F)F)c1)C(=O)NCc1nc2ccc(-c3ccc(F)c(Cl)c3)cc2[nH]1 = −0.06
• C[C@@H](NC(=O)CN1CCNCC1=O)c1ccc(OCC(F)(F)F)cn1 = −0.02
• C[C@@H](NC(=O)[C@H]1CCCN1)c1ccc(OCC(F)(F)F)cn1 = 0.01
• O=C(NCCOc1cc(F)cc(C(F)(F)F)c1)[C@@H]1CCCN1 = 0.06
• Cc1cccc(C)c1OCC(C)NC(=O)CCN1CCNCC1=O (stereo not drawn) = −0.04
• CN[C@H](CC(C)C)C(=O)NCCOc1cc(F)cc(C(F)(F)F)c1 = −0.11
• Cc1cccc(C)c1OCC(C)NC(=O)[C@@H]1CCCN1 (stereo partly drawn) = −0.16
• O=C(CN1CCNCC1=O)NCC(F)(F)F = −0.02

* * *

Target: hNav1.7 (Homo sapiens, UniProt Q15858)
Construct: expressed in transfected cells
Sequence (Q15858 whole entry): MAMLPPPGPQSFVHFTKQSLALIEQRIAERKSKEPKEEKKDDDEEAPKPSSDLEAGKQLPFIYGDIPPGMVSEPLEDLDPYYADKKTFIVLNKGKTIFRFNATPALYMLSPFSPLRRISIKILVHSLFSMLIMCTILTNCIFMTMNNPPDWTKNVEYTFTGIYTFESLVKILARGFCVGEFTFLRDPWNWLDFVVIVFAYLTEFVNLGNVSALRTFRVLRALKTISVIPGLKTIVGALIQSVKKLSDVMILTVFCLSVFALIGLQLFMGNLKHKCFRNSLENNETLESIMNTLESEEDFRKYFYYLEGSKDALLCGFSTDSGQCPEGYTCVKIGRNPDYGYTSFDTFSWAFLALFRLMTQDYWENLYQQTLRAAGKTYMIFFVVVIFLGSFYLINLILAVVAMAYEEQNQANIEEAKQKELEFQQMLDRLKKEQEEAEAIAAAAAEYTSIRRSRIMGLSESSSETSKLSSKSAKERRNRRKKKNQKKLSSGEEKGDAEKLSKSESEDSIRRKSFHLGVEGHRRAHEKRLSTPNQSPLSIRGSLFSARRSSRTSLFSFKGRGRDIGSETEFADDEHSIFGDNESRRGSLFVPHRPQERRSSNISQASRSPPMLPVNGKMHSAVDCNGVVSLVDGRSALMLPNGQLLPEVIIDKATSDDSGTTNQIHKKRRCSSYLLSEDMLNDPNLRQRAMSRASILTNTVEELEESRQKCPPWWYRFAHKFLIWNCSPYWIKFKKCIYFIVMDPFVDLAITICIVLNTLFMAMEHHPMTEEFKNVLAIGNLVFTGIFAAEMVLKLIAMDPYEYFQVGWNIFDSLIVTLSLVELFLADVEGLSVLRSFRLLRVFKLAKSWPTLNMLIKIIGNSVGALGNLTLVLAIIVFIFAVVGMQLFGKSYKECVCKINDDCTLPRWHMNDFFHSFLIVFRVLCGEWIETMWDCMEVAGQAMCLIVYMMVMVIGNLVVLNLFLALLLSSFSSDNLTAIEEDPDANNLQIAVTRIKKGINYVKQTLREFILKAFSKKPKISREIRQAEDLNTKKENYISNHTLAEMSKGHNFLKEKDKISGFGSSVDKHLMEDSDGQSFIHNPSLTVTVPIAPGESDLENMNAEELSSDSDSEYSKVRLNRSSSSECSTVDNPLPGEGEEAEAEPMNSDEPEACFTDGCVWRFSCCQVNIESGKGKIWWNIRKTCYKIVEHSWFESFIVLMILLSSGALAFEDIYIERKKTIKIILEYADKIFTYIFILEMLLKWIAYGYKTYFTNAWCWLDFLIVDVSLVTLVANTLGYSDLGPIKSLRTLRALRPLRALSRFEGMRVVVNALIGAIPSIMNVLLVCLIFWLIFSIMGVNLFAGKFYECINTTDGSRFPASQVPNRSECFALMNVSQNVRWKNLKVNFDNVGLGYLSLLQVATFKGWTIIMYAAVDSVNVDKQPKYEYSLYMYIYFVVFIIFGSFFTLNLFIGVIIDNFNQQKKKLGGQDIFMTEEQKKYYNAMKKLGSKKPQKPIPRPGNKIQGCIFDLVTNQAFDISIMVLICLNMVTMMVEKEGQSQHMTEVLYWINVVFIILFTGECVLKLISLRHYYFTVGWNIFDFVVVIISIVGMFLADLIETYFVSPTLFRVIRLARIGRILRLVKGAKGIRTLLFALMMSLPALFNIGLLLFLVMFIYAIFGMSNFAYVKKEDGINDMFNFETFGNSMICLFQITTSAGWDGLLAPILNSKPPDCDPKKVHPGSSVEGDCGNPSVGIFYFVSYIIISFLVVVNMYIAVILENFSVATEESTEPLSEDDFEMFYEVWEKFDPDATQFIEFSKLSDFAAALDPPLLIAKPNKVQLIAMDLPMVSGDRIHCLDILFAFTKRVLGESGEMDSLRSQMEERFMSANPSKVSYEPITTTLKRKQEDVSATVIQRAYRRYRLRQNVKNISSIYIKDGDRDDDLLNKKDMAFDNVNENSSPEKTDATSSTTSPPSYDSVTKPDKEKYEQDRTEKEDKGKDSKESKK
Sequence (Q07699 19-218 partner): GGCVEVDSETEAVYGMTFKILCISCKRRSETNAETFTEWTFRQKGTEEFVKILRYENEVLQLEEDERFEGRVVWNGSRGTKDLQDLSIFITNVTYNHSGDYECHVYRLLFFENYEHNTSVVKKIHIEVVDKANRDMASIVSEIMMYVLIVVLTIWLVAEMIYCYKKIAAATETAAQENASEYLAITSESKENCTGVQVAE
Experiment: Nav1.7 potency, manual patch clamp
Format: cell-based
Conditions: slow inactivated state; manual patchclamp; read-out: Nav1.7 IC50 SLOW INACTIVATION BLOCK (nM) (Manual Patchclamp)
Each entry below carries its recorded IC50.
Assay Metric: IC50 (nM)

- CN[C@H](CC(C)C)C(=O)NCCOc1cc(F)cc(C(F)(F)F)c1: 3500
- CC(C)C[C@@H](N)C(=O)NC(COc1cc(C(F)(F)F)cc(C(F)(F)F)c1)c1ccccc1 (stereo partly shown): 436
- N[C@@H](c1ccc(Cl)cc1)c1nc2cc(C(F)(F)F)cc(C(F)(F)F)c2[nH]1: 312
- CC(C)C[C@@H](N)C(=O)N[C@@H](C)COc1cc(C(F)(F)F)cc(C(F)(F)F)c1: 568

* * *

Biological target: human Nav1.7 (Homo sapiens)
Construct: expressed in transfected cells
Test: Assessment of Nav1.7 activity on PatchXpress (voltage dependence / slow inactivation parameters)
Assay type: cell-based
Conditions: compound at 10 μM; relative to 0.2% DMSO vehicle control; PatchXpress
# hNav1.7: Shift in voltage dependence of inactivation (mV) Delta Vhalf listing for each entry below
Assay Metric: hNav1.7: Shift in voltage dependence of inactivation (mV) Delta Vhalf

• N[C@H](Cc1cccc(F)c1)c1nc2cc(C(F)(F)F)cc(C(F)(F)F)c2[nH]1 [Compound 55] = −15.1
• CC1(c2cc(C(F)(F)F)cc(C(F)(F)F)c2)NC(=O)NC1=O (stereo not drawn) [Compound 42] = 0.50
• Cc1cccc(C)c1OCC(C)NC(=O)[C@H](N)CC(C)C (stereo partly drawn) [Compound 2] = −32.20
• COC[C@@H]1C(=O)N(Cc2cc(C(F)(F)F)cc(C(F)(F)F)c2)CCN1C(C)=O [Compound 92] = −2.2
• O=C(NC12CC3CC(CC(C3)C1)C2)[C@@H]1CCCN1 [Compound 45] = −6.20
• Cc1cccc(C)c1OCC(C)NC(=O)C(C)(C)CC(=O)N1CCNCC1 (stereo not drawn) [Compound 33] = −5.30
• CC(C)(CC(=O)N1CCNCC1)c1nc2cc(F)cc(F)c2[nH]1 [Compound 67] = −7.8
• O=C(NCCOc1cc(C(F)(F)F)cc(C(F)(F)F)c1)[C@H]1CCCN1 [Compound 11] = −19.70
• CC(C)(c1nc2cc(C(F)(F)F)cc(C(F)(F)F)c2[nH]1)N1CCNCC1=O [Compound 60] = −9.2
• NC1(c2nc3cc(C(F)(F)F)cc(C(F)(F)F)c3[nH]2)Cc2ccccc2C1 [Compound 52] = −14.9
• O=C(NCC12CC3CC(CC(C3)C1)C2)[C@H]1CCCN1 [Compound 44] = −5.40
• COC[C@@H](N)C(=O)NCC(=O)NCc1cc(C(F)(F)F)cc(C(F)(F)F)c1 [Compound 80] = −7.2
• O=C(NCCOc1cc(F)cc(C(F)(F)F)c1)[C@@H]1CCCN1 [Compound 22] = −7.00
• CC12CC3CC(C)(C1)CC(NC(=O)[C@H]1CCCN1)(C3)C2 [Compound 43] = −8.50
• CC[C@H](C)[C@H](N)C(=O)NCCOc1cc(C(F)(F)F)cc(C(F)(F)F)c1 [Compound 7] = −21.40
• CC(C)C[C@@H](N)C(=O)NC(COc1cc(C(F)(F)F)cc(C(F)(F)F)c1)c1ccccc1 (stereo partly drawn) [Compound 38] = −33.7
• O=C(NCCc1c[nH]c2ccc(F)cc12)[C@@H]1CCCN1 [Compound 48] = −1.80
• O=C(CN1CCNCC1=O)NCC(F)(F)F [Compound 47] = −2.50

* * *

Molecular target: human Nav1.7 (Homo sapiens, UniProt Q15858)
Construct: expressed in transfected cells
Test: Assessment of Nav1.7 activity on PatchXpress (voltage dependence / slow inactivation parameters)
Type: cell-based
Details: compound at 10 μM; relative to 0.2% DMSO vehicle control; PatchXpress
Listed compounds paired with reported hNav1.7: Shift in voltage dependence of inactivation (mV) Delta Vhalf
Assay Metric: hNav1.7: Shift in voltage dependence of inactivation (mV) Delta Vhalf

* NCC[C@@H]1Nc2c(cc(C(F)(F)F)cc2C(F)(F)F)NC1=O [Compound 39] | −4.90
* O=C1CNCCN1Cc1nc2cc(Br)ccc2[nH]1 [Compound 63] | −9.7
* O=C(NC[C@H]1CCCN1)Nc1cc(C(F)(F)F)cc(C(F)(F)F)c1 [Compound 49] | −6.40
* O=C1NC(=O)C(c2cc(C(F)(F)F)cc(C(F)(F)F)c2)N1 (stereo not drawn) [Compound 41] | −2.80
* CC(C)C[C@@H](N)C(=O)NC(C)COc1cc(C(F)(F)F)cc(C(F)(F)F)c1 (stereo partly drawn) [Compound 6] | −32.70
* CC(=O)N1CCC(NC(=O)Nc2ccc(OC(F)(F)F)cc2)CC1 [Compound 50] | −0.30
* O[C@@H]1CN[C@H](c2nc3cc(C(F)(F)F)cc(C(F)(F)F)c3[nH]2)C1 [Compound 85] | 0.3
* CC(C)CC(N)C(=O)N[C@H](COc1cc(C(F)(F)F)cc(C(F)(F)F)c1)c1ccccc1 (stereo partly drawn) [Compound 4] | −31.10
* C[C@@H](NC(=O)[C@@H]1CCCN1)c1ccc(OCC(F)(F)F)cn1 [Compound 82] | −2.5
